# Test system: human cell lines
# experiment_summary: MTT assay (EC50/CC50 and MNTD90)
# Assay type: cell-based
# condition_summary: Maximum Non-Toxic Dose, read-out: MNTD/EC90
Property: EC90; scope: individual compounds
Numbers only; they are read as µM.

Worked set:
substance_smiles: CN1CCN(CCNc2nccc(-c3c(-c4cccc(O)c4)nc4sccn34)n2)S1(=O)=O
unit_tag: µM
measured_number: 145
//
substance_smiles: O=C(NCCNc1nccc(-c2c(-c3cccc(O)c3)nc3sccn23)n1)Nc1cccc(C(F)(F)F)c1
unit_tag: µM
measured_number: 5.36
//
substance_smiles: COc1cccc(-c2nc3sccn3c2-c2ccnc(NCCNC(=O)c3cccc(C(F)(F)F)c3)n2)c1
unit_tag: µM
measured_number: 30.6

Moving on to the next compound.
Problem: Look up and report EC90, with human cell lines as system, for O=C(NCCNc1nccc(-c2c(-c3cccc(O)c3)nc3sccn23)n1)c1ccccc1
Solution: 102

----------
# Test system: A. castellanii trophozoites
# experiment_summary: Encystation assay
# Type: cell-based, Acanthamoeba castellanii
# condition_summary: 50 µM, 16% glucose, 30 °C, 48–72 h; negative control 100%
# Description: Encystation assays were performed to determine the effects of the tested compounds to prevent the differentiation of A. castellanii trophozoites into the cyst form and 50 µM of the tested compounds were utilized. Briefly, A. castellanii (1 × 10^6) trophozoites were incubated with these compounds with 16% filter-sterilized glucose (as encystation medium) at 30 °C 48–72 h. A. castellanii cultured alone in 16% glucose was taken as negative control. […]
value_kind: encystation blocked (trophozoites prevented from converting into cysts) (%)
Numbers only; they are read as %.

Worked set:
substance_smiles: O=C(NCCNc1nccc(-c2c(-c3ccc(F)cc3)nc3sccn23)n1)c1cc(C(F)(F)F)cc(C(F)(F)F)c1
unit_tag: %
measured_number: 60
--
substance_smiles: O=C(NCCNc1nccc(-c2c(-c3cccc(O)c3)nc3sccn23)n1)c1cccc(C(F)(F)F)c1
unit_tag: %
measured_number: 60
--
substance_smiles: CN1CCN(CCNc2nccc(-c3c(-c4cccc(O)c4)nc4sccn34)n2)S1(=O)=O
unit_tag: %
measured_number: 62
--
substance_smiles: COc1cccc(-c2nc3sccn3c2-c2ccnc(NCCNC(=O)Nc3cccc(C(F)(F)F)c3)n2)c1
unit_tag: %
measured_number: 72

Moving on to the next compound.
Problem: For the compound O=C(NCCNc1nccc(-c2c(-c3cccc(O)c3)nc3sccn23)n1)c1ccc(N2CCOCC2)c(C(F)(F)F)c1 , report encystation blocked (trophozoites prevented from converting into cysts).
Solution: 78

----------
# System: A. castellanii binding to HeLa cells
# experiment_summary: Adhesion assay: amoebae binding to human cells
# Type: cell-based, Acanthamoeba castellanii
# condition_summary: amoebae pre-treated with 50 µM for 2 h; 60 min on HeLa monolayer
value_kind: inhibition of amoebae binding to human cells (%)
Numbers only; they are read as %.

compound: O=C(NCCNc1nccc(-c2c(-c3cccc(O)c3)nc3sccn23)n1)c1ccc(N2CCOCC2)c(C(F)(F)F)c1 [Compound 1zb]
subject_of_test: A. castellanii binding to HeLa cells
unit_tag: %
measured_number: 55
--
compound: COc1cccc(-c2nc3sccn3c2-c2ccnc(NCCNC(=O)Nc3cccc(C(F)(F)F)c3)n2)c1 [Compound 1m]
subject_of_test: A. castellanii binding to HeLa cells
unit_tag: %
measured_number: 61
--
compound: CN1CCN(CCNc2nccc(-c3c(-c4cccc(O)c4)nc4sccn34)n2)S1(=O)=O [Compound 1zd]
subject_of_test: A. castellanii binding to HeLa cells
unit_tag: %
measured_number: 42

Problem: For the compound O=C(NCCNc1nccc(-c2c(-c3ccc(F)cc3)nc3sccn23)n1)c1cc(C(F)(F)F)cc(C(F)(F)F)c1 [Compound 1i] , report inhibition of amoebae binding to human cells.
Solution: 42

Problem: For the compound CC(C)(C)OC(=O)N1CCN(CCNc2nccc(-c3c(-c4ccc(F)cc4)nc4sccn34)n2)S1(=O)=O [Compound 1l] , report inhibition of amoebae binding to human cells.
Solution: 42

Problem: For the compound O=C(NCCNc1nccc(-c2c(-c3cccc(O)c3)nc3sccn23)n1)c1cccc(C(F)(F)F)c1 [Compound 1z] , report inhibition of amoebae binding to human cells.
Solution: 42

Problem: For the compound COc1ccc(C(=O)NCCNc2nccc(-c3c(-c4ccc(F)cc4)nc4sccn34)n2)cc1OC [Compound 1e] , report inhibition of amoebae binding to human cells.
Solution: 40
